biological target: human ANO6 (Homo sapiens, UniProt Q4KMQ2); construct: expressed in transfected cells; test: YFP quenching assay (ANO6 ion channel activity); assay type: cell-based; conditions: test compound 30 μM, 10 μM ionomycin, read-out: Inhibition Level 30 μM
Sequence (Q4KMQ2 1-931 isoform Q4KMQ2-2): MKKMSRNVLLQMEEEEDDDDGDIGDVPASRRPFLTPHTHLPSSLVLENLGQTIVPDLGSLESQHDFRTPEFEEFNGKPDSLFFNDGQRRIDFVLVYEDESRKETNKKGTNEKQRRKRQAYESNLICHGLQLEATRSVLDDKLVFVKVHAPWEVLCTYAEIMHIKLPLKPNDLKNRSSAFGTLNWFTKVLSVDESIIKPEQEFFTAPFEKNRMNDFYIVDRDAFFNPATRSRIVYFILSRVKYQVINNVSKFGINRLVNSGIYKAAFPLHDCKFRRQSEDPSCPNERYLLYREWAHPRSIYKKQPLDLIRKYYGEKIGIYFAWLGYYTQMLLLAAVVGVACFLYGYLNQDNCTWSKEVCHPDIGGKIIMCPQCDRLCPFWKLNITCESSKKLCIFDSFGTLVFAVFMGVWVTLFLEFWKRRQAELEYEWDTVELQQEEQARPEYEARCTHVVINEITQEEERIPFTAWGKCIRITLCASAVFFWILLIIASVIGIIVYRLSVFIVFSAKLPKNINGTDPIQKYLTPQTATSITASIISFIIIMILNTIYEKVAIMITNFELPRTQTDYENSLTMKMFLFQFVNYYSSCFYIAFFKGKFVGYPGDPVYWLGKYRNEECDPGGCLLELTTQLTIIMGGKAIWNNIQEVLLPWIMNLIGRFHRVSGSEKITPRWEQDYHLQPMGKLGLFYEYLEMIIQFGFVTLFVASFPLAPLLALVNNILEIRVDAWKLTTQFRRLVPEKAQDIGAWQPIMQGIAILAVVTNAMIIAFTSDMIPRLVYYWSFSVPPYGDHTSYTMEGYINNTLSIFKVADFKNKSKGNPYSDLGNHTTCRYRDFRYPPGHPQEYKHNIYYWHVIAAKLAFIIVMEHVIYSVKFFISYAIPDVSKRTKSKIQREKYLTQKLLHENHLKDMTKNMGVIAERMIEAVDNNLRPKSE
observed.property: inhibition at 30 µM

Query :: Tell me the measured inhibition at 30 µM of O=C(NCc1ccc(Cl)cc1)c1cccc(Nc2ccc(-c3ccccc3)nn2)c1 , please.
Result :: ≥ 60%

Query :: Tell me the measured inhibition at 30 µM of O=C(NC1CC1)c1cccc(Nc2ccc(-c3ccccc3)nn2)c1 , please.
Result :: ≥ 60%

Query :: Tell me the measured inhibition at 30 µM of O=C(NCC1CCCC1)c1cccc(Nc2ccc(-c3ccccc3)nn2)c1 , please.
Result :: ≥ 60%

Query :: Tell me the measured inhibition at 30 µM of COCCCNC(=O)c1cccc(Nc2ccc(-c3ccccc3)nn2)c1 , please.
Result :: ≥ 60%

Query :: Tell me the measured inhibition at 30 µM of O=C(NCCc1ccccc1)c1cccc(Nc2ccc(-c3ccccc3)nn2)c1 , please.
Result :: ≥ 60%

Query :: Tell me the measured inhibition at 30 µM of O=C(NCc1ccc2c(c1)OCO2)c1cccc(Nc2ccc(-c3ccc(F)cc3)nn2)c1 , please.
Result :: ≥ 60%

Query :: Tell me the measured inhibition at 30 µM of NC(=O)c1ccc(Nc2ccc(-c3ccccc3)nn2)cc1 , please.
Result :: 30 to 60%

Query :: Tell me the measured inhibition at 30 µM of Cc1ccc(CNC(=O)c2cccc(Nc3ncc(-c4ccc(F)cc4)cn3)c2)o1 , please.
Result :: 30 to 60%

Query :: Tell me the measured inhibition at 30 µM of O=C(NC1CCCCCC1)c1cccc(Nc2ccc(-c3ccccc3)nn2)c1 , please.
Result :: ≥ 60%

---

target: human ANO6 (Homo sapiens, UniProt Q4KMQ2); construct: expressed in transfected cells; assay: LACT C2 assay (phosphatidylserine scramblase function assay); type: cell-based; details: test compound 100 nM, FRT cells expressing human ANO6, 10 μM ionomycin, read-out: Inhibition Level 100 nM
observed.property: inhibition at 0.1 µM

Query :: Given the entry O=C(NC1(CO)CC1)c1cccc(Nc2ncc(-c3cccc(F)c3)cn2)c1 [Compound 219] , what inhibition at 0.1 µM was observed with human ANO6 (Homo sapiens, UniProt Q4KMQ2)?
Result :: < 30%

Query :: Given the entry O=C(N[C@@H]1C[C@H]1c1ccccc1)c1cc(Nc2ncc(-c3ccccc3)cn2)ccn1 [Compound 167] , what inhibition at 0.1 µM was observed with human ANO6 (Homo sapiens, UniProt Q4KMQ2)?
Result :: < 30%

Query :: Given the entry O=C(NCc1ccc(Cl)cc1)c1cccc(Nc2ncc(-c3cccc(F)c3)cn2)c1 [Compound A101] , what inhibition at 0.1 µM was observed with human ANO6 (Homo sapiens, UniProt Q4KMQ2)?
Result :: < 30%

Query :: Given the entry Cc1ccc(CNC(=O)c2cccc(Nc3ccc(-c4cccc(F)c4)cc3)c2)o1 [Compound 57] , what inhibition at 0.1 µM was observed with human ANO6 (Homo sapiens, UniProt Q4KMQ2)?
Result :: < 30%

Query :: Given the entry O=C(NCCc1ccccc1)c1cccc(Nc2ccc(-c3ccccc3)cn2)c1 [Compound 114] , what inhibition at 0.1 µM was observed with human ANO6 (Homo sapiens, UniProt Q4KMQ2)?
Result :: < 30%

Query :: Given the entry O=C(Nc1cccc(F)c1)c1cccc(Nc2ccc(-c3ccncc3)cc2)c1 [Compound 162] , what inhibition at 0.1 µM was observed with human ANO6 (Homo sapiens, UniProt Q4KMQ2)?
Result :: < 30%

Query :: Given the entry Nc1ccc(NC(=O)c2cccc(Nc3ccc(-c4cccc(F)c4)cn3)c2)cc1 [Compound 146] , what inhibition at 0.1 µM was observed with human ANO6 (Homo sapiens, UniProt Q4KMQ2)?
Result :: < 30%

Query :: Given the entry O=C(Nc1cccc(F)c1)c1cccc(Nc2ccc(-c3cnccn3)cc2)c1 [Compound 172] , what inhibition at 0.1 µM was observed with human ANO6 (Homo sapiens, UniProt Q4KMQ2)?
Result :: ≥ 60%

Query :: Given the entry CCN1CCN(c2cc(CNC(=O)c3cccc(Nc4ccc(-c5ccccc5)nn4)c3)ccc2F)CC1 [Compound 226] , what inhibition at 0.1 µM was observed with human ANO6 (Homo sapiens, UniProt Q4KMQ2)?
Result :: < 30%

Query :: Given the entry O=C(N[C@@H]1C[C@H]1c1ccccc1)c1cccc(Nc2ncc(-c3ccccc3)cn2)c1 [Compound 117] , what inhibition at 0.1 µM was observed with human ANO6 (Homo sapiens, UniProt Q4KMQ2)?
Result :: < 30%

Query :: Given the entry Cc1ccc(CNC(=O)c2cccc(Nc3ccc(-c4cscc4C)nn3)c2)o1 [Compound 74] , what inhibition at 0.1 µM was observed with human ANO6 (Homo sapiens, UniProt Q4KMQ2)?
Result :: 30 to 60%

Query :: Given the entry CN(c1cccc(C(=O)N[C@@H]2C[C@H]2c2ccccc2)c1)c1ncc(-c2cccc(F)c2)cn1 [Compound 180] , what inhibition at 0.1 µM was observed with human ANO6 (Homo sapiens, UniProt Q4KMQ2)?
Result :: < 30%

Query :: Given the entry O=C(N[C@@H]1C[C@H]1c1ccccc1)c1cccc(Nc2ccc(-c3ccccc3)nn2)c1 [Compound 68] , what inhibition at 0.1 µM was observed with human ANO6 (Homo sapiens, UniProt Q4KMQ2)?
Result :: ≥ 60%

Query :: Given the entry O=C(NCc1ccc(F)cc1)c1cccc(Nc2ncc(-c3cccc(F)c3)cn2)c1 [Compound A96] , what inhibition at 0.1 µM was observed with human ANO6 (Homo sapiens, UniProt Q4KMQ2)?
Result :: < 30%

Query :: Given the entry O=C(NCc1ccc(Br)cc1)c1cccc(Nc2ncc(-c3cccc(F)c3)cn2)c1 [Compound A100] , what inhibition at 0.1 µM was observed with human ANO6 (Homo sapiens, UniProt Q4KMQ2)?
Result :: < 30%

Query :: Given the entry O=C(NC1(c2ccccc2)CC1)c1cccc(Nc2ccc(-c3cccc(F)c3)cn2)c1 [Compound 134] , what inhibition at 0.1 µM was observed with human ANO6 (Homo sapiens, UniProt Q4KMQ2)?
Result :: < 30%

Query :: Given the entry Cc1ccc(CNC(=O)c2cccc(Nc3ccc(-c4ccsc4)nn3)c2)o1 [Compound 73] , what inhibition at 0.1 µM was observed with human ANO6 (Homo sapiens, UniProt Q4KMQ2)?
Result :: < 30%
